Molecular target: T1, His-tagged human BCMA (Acro Biosystems, Cat. #BCA-H522y) (human, UniProt Q02223 1-54)
T1 construct: also called huBCMA; P1; not shown: His tag
T1 sequence: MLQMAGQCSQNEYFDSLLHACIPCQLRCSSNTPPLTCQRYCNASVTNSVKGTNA
Assay: ELISA, coated His-tagged human BCMA
Measured EC50 (read off the curve), listed per entry.

J6M0 (antibody, V domains shown, also called J6M0-hIgG1; anti-BCMA) VH: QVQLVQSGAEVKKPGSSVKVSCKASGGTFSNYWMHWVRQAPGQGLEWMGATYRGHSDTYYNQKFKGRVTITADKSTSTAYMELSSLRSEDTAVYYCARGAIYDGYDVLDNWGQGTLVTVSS VL: DIQMTQSPSSLSASVGDRVTITCSASQDISNYLNWYQQKPGKAPKLLIYYTSNLHSGVPSRFSGSGSGTDFTLTISSLQPEDFATYYCQQYRKLPWTFGQGTKLEIK    ~7 ng/mL
538-SP5-B10 hIgG1 (antibody, V domains shown, Human-mouse chimeric antibody, human IgG1 format) VH: EVQLQQSGPELVKPGASVKMSCKASGYTFTSYVMHWVKQKPGRGLEWIAYILPFNDVTKYNEKFKGKATLTSDKSSNTAYMELSSLTSEDSAVYYCARWEWDDGYFDYWGQGTTLTVSS VL: DAVMTQTPLSLPVSLGDQASISCRSSQSLENSNGNTYLNWYLQKPGQSPQLLIYRVSNRFSGVLDRFSGSGSGTDFTLKISRVEAEDLGVYFCLQVSHVPFTFGAGTKLELKR    ~10 ng/mL
539-SP2-H3 hIgG1 (antibody, V domains shown, Human-mouse chimeric antibody, human IgG1 format) VH: EVQLQQSGPELVKPGASVKMSCKASGYTFTSYVIHWVKQKPGQGLEWIGYVLPYNDVIKYNEKFKGKATLTSDKSSSTAYMDLSSLTSEDSAVYYCARWGDFDEGIWFPYWGQGTLVTVSA VL: DVLMTQTPLSLPVSLGDHASVSCRSSQSIVHTDGNTYLEWYLQKPGQSPKLLIYKVSNRFSGVPDRFSGSGSGTDFTLKISRVEAEDLGVYYCFQGSHVPWTFGGGTKLEIKR    ~10 ng/mL

Entry 539-SP1-C8 hIgG1 (antibody, V domains shown, Human-mouse chimeric antibody, human IgG1 format; also called [2]) VH: EVQLQQSGPELVKPGSSVKMSCKASGYTFTNYVMHWVKQKPGQGLEWIGYILPYNDGTKYNEKFKGKATLTSDKSSSTAYMEFSVLTSEDSAVYYCARYDYEGSFDYWGQGTALTVSS VL: DIQMTQTTSSLSASLGDRVTISCRASQDISNYLNWYQQKPDGTVKLLMCYTSRLHSGVPSRFSGSGSGTDFSLTISNLEQEDIATYFCQQGNTFPPTFGGGTKLEIKR — recorded EC50 (read off the curve) = ~9 ng/mL
